tested on: CSF1R-autoinhibited; conditions: concentration: 1 μM, replicates: in singlicate; n = 1;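 also: KINOMEscan kinase panel screen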
Class 1 (yes): %Inh at least 20%. Class 0 (no): %Inh below 20%.

INSERT INTO results (structure_smiles_string, class_label) VALUES
  ('CNc1nccc(-c2ccc3c(N)n[nH]c3c2)n1', '0 (no)'),
  ('Cc1ccc(NC(=O)c2cccc(N3CCCCC3)c2)cc1-c1ccc(C(=O)NCC2CC2)cc1', '0 (no)'),
  ('Cn1cc(-c2cnc(N)c3c(-c4ccc5c(c4)CCN5C(=O)Cc4ccccc4)csc23)cn1', '1 (yes)'),
  ('CCOc1nccc(-c2c(-c3ccc(F)cc3)ncn2C2CCNCC2)n1', '1 (yes)'),
  ('Nc1cccc(-c2ccc3c(N)n[nH]c3c2)c1', '0 (no)');

Is the recorded value of %Inh equal to or greater than 20% for this molecule? Cn1cc(-c2ccc3c(c2)CCN3C(=O)Cc2cc(F)cc(F)c2F)c2c(N)ncnc21
0 (no)

Is the recorded value of %Inh equal to or greater than 20% for this molecule? CN1CCN(Cc2ccc(NC(=O)Nc3ccc(N(C)c4ccnc(Nc5ccc(CS(C)(=O)=O)cc5)n4)cc3)cc2)CC1.Cl
1 (yes)

Is the recorded value of %Inh equal to or greater than 20% for this molecule? CN(C)c1ncnc2nc[nH]c12
0 (no)

Is the recorded value of %Inh equal to or greater than 20% for this molecule? O=C(O)C(F)(F)F.O=c1[nH]ccc2nc(N[C@@H]3CCNC3)nc(Nc3cc(Cl)cc(Cl)c3)c12
0 (no)

====

test system: AMPK-alpha1; construct: gene PRKAA1; settings: concentration: 1 μM, replicates: in singlicate; n = 1
Kindly state %Inh for each of the entries shown.
Report field: quantity (unit follows the number).

Worked examples follow.
INSERT INTO assay_data (compound, tgt, readout_type, reading) VALUES
  ('c1ccc(Oc2ccc(Nc3ccnc4cc(-c5ccc(CN6CCCCC6)o5)ccc34)cc2)nc1 [GW567143]', 'AMPK-alpha1', '%Inh', '0%'),
  ('N#CC1(c2cccc(C(=O)Nc3cccc(Oc4ccc5nc(NC(=O)C6CC6)sc5n4)c3)c2)CC1', 'AMPK-alpha1', '%Inh', '17%'),
  ('Cc1ccc(O)cc1Nc1ccnc2ccc(C(C)(C)C)cc12 [GW856805]', 'AMPK-alpha1', '%Inh', '8%'),
  ('CN(c1ccc(NC(=O)Nc2cccc(Cl)c2)cc1)c1ccnc(N)n1.Cl [GW830707]', 'AMPK-alpha1', '%Inh', '0%');

Form field %Inh, entry Cc1ccccc1CC(=O)N1CCc2cc(-c3cn(C)c4ncnc(N)c34)ccc21 [GSK2603346] : 18%

====

system: JNK1; construct: gene MAPK8; settings: concentration: 1 μM, replicates: in singlicate; n = 1
Kindly state %Inh for each of the entries shown.
Numbers only, in %.

Worked examples follow.
INSERT INTO assay_data (structure_smiles_string, readout_type, reading) VALUES
  ('Cc1cccc(Nc2nc(NCCN)ncc2C(N)=O)c1', '%Inh', 43),
  ('O=C(O)C(F)(F)F.O=c1[nH]ccc2nc(N[C@@H]3CCNC3)nc(Nc3cc(Cl)cc(Cl)c3)c12', '%Inh', 36),
  ('CCn1c(-c2nonc2N)nc2c(-c3ccccc3)ncc(OCCCN)c21.O=C(O)C(F)(F)F.O=C(O)C(F)(F)F', '%Inh', 26);

For each of the compounds below, state %Inh.
1. CC(=O)Nc1cn2nc(Oc3cccc(NC(=O)c4cccc(C(F)(F)F)c4)c3)ccc2n1
2. CN(c1ccc(NC(=O)N2CCN(CCCN3CCOCC3)CC2)cc1)c1ccnc(Nc2ccc(CS(C)(=O)=O)cc2)n1.Cl
3. COc1ccc(C)c(Nc2ccnc(Nc3ccc(-c4cnc[nH]4)cc3)n2)c1.Cl

1: 26; 2: 46; 3: 14

For each of the compounds below, state %Inh.
1. CS(=O)(=O)c1cccc(CNc2nc(Nc3ccc4c(c3)CCC(=O)N4)ncc2C(F)(F)F)c1
2. CN(C)c1ncnc2nc[nH]c12

1: 49; 2: 23

====

system: FLT3-autoinhibited; settings: concentration: 1 μM, replicates: in singlicate; n = 1
READOUT_TYPE: %Inh (%)
Numbers only, in %.

Worked examples follow.
INSERT INTO measurements (structure_smiles_string, tgt, unit_of_measurement, reading) VALUES
  ('O=C(Nc1n[nH]c2nc(-c3ccccc3)ccc12)C1CC1', 'FLT3-autoinhibited', '%', 0),
  ('Cn1cc(-c2ccc3c(c2)CCN3C(=O)Cc2cc(F)cc(F)c2F)c2c(N)ncnc21', 'FLT3-autoinhibited', '%', 0);

For each of the compounds below, state %Inh.
1. O=C(Nc1n[nH]c2cc(-c3cccs3)ccc12)C1CC1
2. N#Cc1cnc2cc(-c3cnc(CNCCN4CCOCC4)s3)ccc2c1Nc1ccc(Oc2ccccc2)cc1
3. Cc1ccc(NC(=O)c2cccc(N3CCCCC3)c2)cc1-c1ccc(C(=O)NCC2CC2)cc1

1. 65
2. 7
3. 20

For each of the compounds below, state %Inh.
1. Fc1cc(Cl)ccc1Nc1ccnc2cc(-c3ccc(CN4CCSCC4)o3)ccc12
2. Fc1cc(Cl)ccc1Nc1ccnc2cc(-c3ccc(CN4CCOCC4)o3)ccc12

0
6

Sample Cc1ccc(NC(=O)c2ccnc(N3CCCCC3)c2)cc1-c1ccc(C(=O)NCC2CC2)cc1 , system: FLT3-autoinhibited. Its %Inh is 6

====

tested on: CAMK2D; conditions: concentration: 1 μM, replicates: in singlicate; n = 1
READOUT_TYPE: %Inh (%)
Give bare numbers, in %.

Worked examples follow.
INSERT INTO measurements (compound, readout_type, unit_of_measurement, reading) VALUES
  ('CN(c1ccc2c(c1)nc(NCc1ccccc1)n2C)c1ccnc(Nc2ccc(CS(C)(=O)=O)cc2)n1.Cl [GW811603]', '%Inh', '%', 0),
  ('Cc1nn2c(=O)cc(N3CCO[C@H](C)C3)nc2n1Cc1cccc(Cl)c1Cl [GSK2373693]', '%Inh', '%', 10),
  ('Cc1ccc(NC(=O)c2ccnc(N3CCCCC3)c2)cc1-c1ccc(C(=O)NCC2CC2)cc1 [GW775610]', '%Inh', '%', 0);

Shift focus to the following entry.
Form field %Inh, entry COC(=O)Nc1nc2ccc(Oc3ccc(CC(=O)Nc4cc(C(F)(F)F)ccc4F)cc3)cc2[nH]1 [GW680903] : 1

====

tested on: MEK2; construct: gene MAP2K2; settings: concentration: 1 μM, replicates: in singlicate; n = 1
Class Satisfied: %Inh at least 6%. Class Not satisfied: %Inh below 6%.

Record excerpt, results attached:
INSERT INTO assay_data (molecule, tgt, class_label) VALUES
  ('Cn1cc(-c2ccc3c(c2)CCN3C(=O)Cc2cc(F)cc(C(F)(F)F)c2)c2c(N)ncnc21 [GSK2635225]', 'MEK2', 'Not satisfied'),
  ('Cc1ccc(NC(=O)c2ccc(Cl)c(Cl)c2)cc1-c1ccc(C(=O)Nc2ccncc2)cc1 [GSK1398460]', 'MEK2', 'Not satisfied'),
  ('COc1cc(Nc2nccc(N3CCC(NC(=O)Nc4ccc5c(c4)OCO5)C3)n2)cc(OC)c1OC (stereo not shown) [GSK1379766]', 'MEK2', 'Not satisfied'),
  ('Cn1cc(-c2ccc3c(c2)CCN3C(=O)Cc2cc(F)cc(F)c2F)c2c(N)ncnc21 [GSK2634140]', 'MEK2', 'Not satisfied'),
  ('N#CC1(c2cccc(C(=O)Nc3cccc(Oc4ccc5nc(NC(=O)C6CC6)sc5n4)c3)c2)CC1', 'MEK2', 'Satisfied'),
  ('CN(C)CCNS(=O)(=O)c1ccc(-c2ccnc3[nH]ccc23)cc1 [GSK977620]', 'MEK2', 'Not satisfied');

Turning to the following molecule.
Is the recorded value of %Inh equal to or greater than 6% for this molecule? Cl.Cl.NC(CNC(=O)c1cc(Br)c(-c2ccnc3[nH]ccc23)s1)c1ccccc1 (stereo not shown) [GSK1322949]
Not satisfied

====

system: SRPK2; conditions: concentration: 1 μM, replicates: in singlicate; n = 1
READOUT_TYPE: %Inh (%)
Numbers only, in %.

Worked examples follow.
INSERT INTO results (structure_smiles_string, readout_type, reading) VALUES
  ('O=C(Nc1n[nH]c2nc(-c3cccc(O)c3)ccc12)C1CC1', '%Inh', 0),
  ('CCNC(=O)/C=C/c1n[nH]c2cc(Sc3ccccc3C(=O)NC)ccc12', '%Inh', 0),
  ('Cc1ccc(O)cc1Nc1ccnc2ccc(C(C)(C)C)cc12', '%Inh', 8);

For each of the molecules below, state %Inh.
1. Cn1cc(-c2ccc3c(c2)CCN3C(=O)Cc2cc(F)cc(F)c2F)c2c(N)ncnc21
2. CCn1c(-c2nonc2N)nc2c(-c3ccccc3)ncc(OCCCN)c21.O=C(O)C(F)(F)F.O=C(O)C(F)(F)F
3. O=C(Nc1n[nH]c2cc(-c3cccs3)ccc12)C1CC1

0
0
23
